- study.target: H44R/H48Q yeast alcohol dehydrogenase (Saccharomyces cerevisiae, UniProt P00330, H45R/H49Q)
- Sequence (P00330 2-348 H45R/H49Q): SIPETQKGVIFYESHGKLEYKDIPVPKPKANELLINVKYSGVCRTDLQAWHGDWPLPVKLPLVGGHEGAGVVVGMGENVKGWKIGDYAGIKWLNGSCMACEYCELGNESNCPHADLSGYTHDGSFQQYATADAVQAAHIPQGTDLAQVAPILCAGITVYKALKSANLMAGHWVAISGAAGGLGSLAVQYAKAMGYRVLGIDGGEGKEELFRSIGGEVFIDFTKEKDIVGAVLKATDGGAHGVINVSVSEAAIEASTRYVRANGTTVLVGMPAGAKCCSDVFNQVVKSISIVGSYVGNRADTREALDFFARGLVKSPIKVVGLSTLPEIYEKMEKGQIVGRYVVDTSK
- assay.context: read-out: Kiq, inhibition (dissociation) constant for NADH; pH 7.3, 30 °C, 83 mM potassium phosphate, 40 mM KCl
experimental.endpoint: pKi
# log scale: pKi equals minus log10 of the concentration in mol/L

Any idea what its pKi is? The compound is NC(=O)C1=CN([C@@H]2O[C@H](COP(=O)([O-])OP(=O)([O-])OC[C@H]3O[C@@H](n4cnc5c(N)ncnc54)[C@H](O)[C@@H]3O)[C@@H](O)[C@H]2O)C=CC1.[Na+].[Na+] [NADH]
5.46

These data points were gathered from paper PMC11090211.
